Reported log10(IC50) is given for each of the following compounds.
measurement_protocol: Inhibition of human recombinant beta-tryptase pre-incubated for 3 hrs before N-tert-butoxycarbonyl-Gln-Ala-Arg-AMC substrate addition and measured every 30 secs for 15 mins by spectrometry
parameter: log10(IC50) (log10 of the value in nM)

# molecule, parameter, test_value
data = [
    ("NCc1ccc2c(c1)C1(CCN(C(=O)c3cccc(-c4cccc5c4COB5O)c3)CC1)CO2", "log10(IC50)", 3.18),
    ("NCc1ccc2c(c1)C1(CCN(C(=O)c3cc(O)c(O)c(Cl)c3)CC1)CO2", "log10(IC50)", 2.38),
    ("NCc1ccc2c(c1)C1(CCN(C(=O)c3ccc(Cl)c(-c4cccc(B(O)O)c4)c3)CC1)CO2", "log10(IC50)", 3.04),
    ("Cc1cc(C(=O)N2CCC(c3cccc(CN)c3)CC2)cc(-c2cccc(B(O)O)c2)c1C", "log10(IC50)", 3.10),
    ("CONC(=O)c1ccc(C(=O)N2CCC3(CC2)COc2ccc(CN)cc23)cc1O", "log10(IC50)", 1.64),
    ("NCc1ccc2c(c1)C1(CCN(C(=O)c3ccc(O)c(O)c3)CC1)CO2", "log10(IC50)", 2.80),
    ("NCc1cccc(C2CCN(C(=O)c3cc(O)c(O)c(Cl)c3)CC2)c1", "log10(IC50)", 2.53),
    ("CSc1sc(C(=O)N2CCC(c3cccc(CN)c3)CC2)cc1-c1cccc2c1COB2O", "log10(IC50)", 1.15),
    ("NCc1ccc2c(c1)C1(CCN(C(=O)c3ccc(CO)c(O)c3)CC1)CO2", "log10(IC50)", 2.82),
    ("NCc1cccc(C2CCN(C(=O)c3ccc(CO)c(O)c3)CC2)c1", "log10(IC50)", 1.82),
    ("CSc1sc(C(=O)N2CCC3(CC2)COc2ccc(CN)cc23)cc1-c1cccc2c1COB2O", "log10(IC50)", 1.26),
    ("NCc1cccc(C2CCN(C(=O)c3cccc4ccc(B(O)O)cc34)CC2)c1", "log10(IC50)", 4.20),
    ("CONC(=O)c1cc(C(=O)N2CCC(c3cccc(CN)c3)CC2)ccc1O", "log10(IC50)", 3.52),
    ("COc1cc(C(=O)N2CCC3(CC2)COc2ccc(CN)cc23)cc(O)c1O", "log10(IC50)", 2.98),
    ("NCc1cccc(C2CCN(C(=O)/C=C/c3ccc4c(c3)OB(c3ccc5cccc(C(=O)N6CCC(c7cccc(CN)c7)CC6)c5c3)O4)CC2)c1", "log10(IC50)", 2.61),
    ("Cc1cc(C(=O)N2CCC3(CC2)COc2ccc(CN)cc23)cc(-c2cccc(B(O)O)c2)c1C", "log10(IC50)", 3.13),
    ("NCc1cccc(C2CCN(C(=O)/C=C/c3ccc(O)c(O)c3)CC2)c1", "log10(IC50)", 3.58),
    ("CONC(=O)c1cc(C(=O)N2CCC3(CC2)COc2ccc(CN)cc23)ccc1O", "log10(IC50)", 2.76),
    ("COc1cc(C(=O)N2CCC(c3cccc(CN)c3)CC2)cc(O)c1O", "log10(IC50)", 2.97),
    ("NCc1cccc(C2CCN(C(=O)c3ccc(O)c(O)c3)CC2)c1", "log10(IC50)", 2.66),
]

---

Reported pKa is given for each of the following compounds.
measurement_protocol: Dissociation constant, pKa of the compound (NH3*) by pH metric assay
Assay type: physicochemical
parameter: pKa

# molecule, test_value
records = [
    ("NCc1cccc(C2CCN(C(=O)c3cccc4ccc(B(O)O)cc34)CC2)c1", 9.53),
    ("NCc1cccc(C2CCN(C(=O)/C=C/c3ccc(O)c(O)c3)CC2)c1", 9.67),
]

---

measurement_protocol: Drug concentration in tumor of mouse xenografted with human HMC1 cells at 10 mg/kg, iv dosed at time 0 and again 24 hrs later and measured at 8 hrs after second dose by LC-MS/MS analysis
Type: ADME, organism-based, Neoplasm
condition_context: read-out: Drug uptake
Reported concentration at 8 h is given for each of the following molecules.

# molecule, concentration at 8 h [nM]
data = [
    ("NCc1ccc2c(c1)C1(CCN(C(=O)c3cc(O)c(O)c(Cl)c3)CC1)CO2.O=C(O)C(F)(F)F", 58.6),
    ("NCc1ccc2c(c1)C1(CCN(C(=O)c3cccc(-c4cccc(B(O)O)c4)c3)CC1)CO2.O=C(O)C(F)(F)F", 107),
]

---

measurement_protocol: Stability in mouse liver microsomes assessed as parent compound remaining at 15 uM in presence of NADPH incubated for 60 mins
Format: ADME, Microsome
condition_context: read-out: Stability

# molecule, remaining at 1 h, 15 µM [%]
measured = [
    ("NCc1cccc(C2CCN(C(=O)/C=C/c3ccc(O)c(O)c3)CC2)c1", 18),
    ("NCc1cccc(C2CCN(C(=O)c3cccc4ccc(B(O)O)cc34)CC2)c1", 99),
]

---

measurement_protocol: Clearance in C57BL/6 mouse at 5 mg/kg, iv measured over 0.25 to 24 hrs by LC-MS/MS analysis
Type: ADME, organism-based
condition_context: in vivo
parameter: clearance

# molecule, test_value
rows = [
    ("NCc1cccc(C2CCN(C(=O)c3ccc(O)c(O)c3)CC2)c1", "519 mL/min/kg"),
    ("NCc1cccc(C2CCN(C(=O)c3cccc(-c4cccc(B(O)O)c4)c3)CC2)c1", "52.5 mL/min/kg"),
]

---

Reported remaining at 1 h, 15 µM is given for each of the following compounds.
measurement_protocol: Stability in human liver microsomes assessed as parent compound remaining at 15 uM in presence of NADPH incubated for 60 mins
Assay type: ADME, Microsome
condition_context: liver microsomes, read-out: Stability

# molecule, remaining at 1 h, 15 µM [%]
measured = [
    ("NCc1ccc2c(c1)C1(CCN(C(=O)c3cccc(-c4cccc(B(O)O)c4)c3)CC1)CO2", 96),
    ("NCc1ccc2c(c1)C1(CCN(C(=O)c3cccc(-c4cccc5c4COB5O)c3)CC1)CO2", 82),
    ("NCc1cccc(C2CCN(C(=O)c3cccc4ccc(B(O)O)cc34)CC2)c1", 100),
    ("NCc1cccc(C2CCN(C(=O)/C=C/c3ccc(O)c(O)c3)CC2)c1", 8),
    ("NCc1cccc(C2CCN(C(=O)c3cccc(-c4cccc(B(O)O)c4)c3)CC2)c1", 2),
    ("CONC(=O)c1cc(C(=O)N2CCC(c3cccc(CN)c3)CC2)ccc1O", 84),
    ("NCc1cccc(C2CCN(C(=O)c3ccc(CO)c(O)c3)CC2)c1", 68),
    ("NCc1cccc(C2CCN(C(=O)c3ccc(O)c(O)c3)CC2)c1", 52),
    ("NCc1cccc(C2CCN(C(=O)c3cc(O)c(O)c(Cl)c3)CC2)c1", 29),
    ("CONC(=O)c1cc(C(=O)N2CCC3(CC2)COc2ccc(CN)cc23)ccc1O", 87),
    ("COc1cc(C(=O)N2CCC3(CC2)COc2ccc(CN)cc23)cc(O)c1O", 74),
]

---

target_or_test_system: CYP1A2 (Homo sapiens, UniProt P05177)
Sequence (P05177 whole entry): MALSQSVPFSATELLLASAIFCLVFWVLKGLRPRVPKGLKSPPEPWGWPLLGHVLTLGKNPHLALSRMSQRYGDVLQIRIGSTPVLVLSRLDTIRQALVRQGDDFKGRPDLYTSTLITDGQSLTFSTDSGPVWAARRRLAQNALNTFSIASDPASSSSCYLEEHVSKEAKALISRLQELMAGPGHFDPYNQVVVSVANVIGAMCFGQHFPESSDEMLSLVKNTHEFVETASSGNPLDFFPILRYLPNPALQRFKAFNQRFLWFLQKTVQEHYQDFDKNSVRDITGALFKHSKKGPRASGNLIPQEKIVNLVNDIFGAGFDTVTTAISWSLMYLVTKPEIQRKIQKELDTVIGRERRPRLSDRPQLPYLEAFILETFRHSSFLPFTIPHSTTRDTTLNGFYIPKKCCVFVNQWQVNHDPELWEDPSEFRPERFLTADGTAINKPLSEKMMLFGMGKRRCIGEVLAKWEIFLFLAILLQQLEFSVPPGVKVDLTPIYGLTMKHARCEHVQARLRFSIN
measurement_protocol: Inhibition of CYP1A2 (unknown origin) at 10 uM relative to control
Assay type: ADME
Reported inhibition at 10 µM is given for each of the following compounds.

# molecule, inhibition at 10 µM
measured = [
    ("NCc1cccc(C2CCN(C(=O)c3cccc4ccc(B(O)O)cc34)CC2)c1", "45%"),
    ("NCc1cccc(C2CCN(C(=O)/C=C/c3ccc(O)c(O)c3)CC2)c1", "18%"),
]

---

Reported remaining at 1 h, 15 µM is given for each of the following molecules.
measurement_protocol: Stability in rat liver microsomes assessed as parent compound remaining at 15 uM in absence of NADPH incubated for 60 mins
Assay type: ADME, Microsome
condition_context: read-out: Stability
parameter: remaining at 1 h, 15 µM (%)

# molecule, test_value
measured = [
    ("NCc1cccc(C2CCN(C(=O)c3cccc4ccc(B(O)O)cc34)CC2)c1", 100),
    ("NCc1cccc(C2CCN(C(=O)/C=C/c3ccc(O)c(O)c3)CC2)c1", 73),
]
